Biological target: T1, soluble human B7-H7-Fc fusion protein (extracellular region of human B7-H7, aa 23-344, and a human Fc … (human, UniProt Q9UM44 23-344))
T1 construct: also called hB7-H7-Fc; soluble B7-H7
T1 sequence: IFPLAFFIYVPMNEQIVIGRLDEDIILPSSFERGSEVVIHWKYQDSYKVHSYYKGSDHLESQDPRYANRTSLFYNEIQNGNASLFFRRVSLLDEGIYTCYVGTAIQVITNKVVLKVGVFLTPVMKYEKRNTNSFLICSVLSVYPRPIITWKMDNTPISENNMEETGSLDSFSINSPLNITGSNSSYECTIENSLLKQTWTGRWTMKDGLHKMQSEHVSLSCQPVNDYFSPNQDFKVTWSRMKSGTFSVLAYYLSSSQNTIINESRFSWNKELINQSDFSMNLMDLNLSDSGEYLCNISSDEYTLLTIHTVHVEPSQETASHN
Experiment: FACS competition: antibody titrated against soluble hB7-H7-Fc binding to HEK-293 cells expressing human KIR3DL3
readout-name: IC50 (nM)
Numbers only here, please. The scale is nM.

The examples below pair each entry with its known result.
| binder | uom | IC50 |
| --- | --- | --- |
| anti-B7-H7 antibody 28F5 (antibody, V domains shown, Mouse hybridoma antibody) VH: QVQLKESGPGLVAPSQSLSITCTVSGFSLTGYGVNWVRQPPGKGLEWLGVIWGDGSTDYNSVLKSRLSISKDNSKSQVFLKMNSLQTDDTARYYCAREATEYLYWYFDVWGAGTTVTVSS VL: DIVLTQSPASLAVSLGQRATISCRASESVEYYGSSLMQWYQQKPGQPPKLLIFAASNVESGVPPRFSGSGSGTDFNLNIHPVDEDDIAMYFCQQGRRVPWTFGGGTKLEIK | nM | 2.6 |
| anti-B7-H7 antibody 5B10 (antibody, V domains shown, Mouse hybridoma antibody) VH: EVQLQQSGPELEKPGASVKISCKASGYSFTGYNMNWVKQSNGKSLEWIGNIDPYSGGSTYNQKFKGKATLTVDKSSSTASLQLKSLTSEDSSVYYCARSFYDAPYLTYWGQGTLVTVSA VL: DIQMTQSPTSLSASVGETVTITCRASENIFIYLAWYQQKQGKSPQLLVFNAKTLAEGVPSRFSGSGSGTQFSLKINSLRPEDFGTYYCQHHYGTPPTFGGGTKLEV | nM | 2.4 |
| anti-B7-H7 antibody 16D5 (antibody, V domains shown, Mouse hybridoma antibody) VH: QVQLQQSAAELARPGASVKMSCKASGYTFTTYTMHWVKQRPGQGLEWIGYINPSRGYSDYSQKFQGKSTLTTDKSSNTAYIQLTSLTSEDSAVYFCARGGYDFDYWGQGTTLTVSS VL: DIVMTQSHKFMSTSVGDRVSITCKASQDVGTAVAWYQQKPGQSPKLLLYWASTRHTGVPDRFTGSGSGTDYTLTISSVQAEDLALYHCQQHFITPYTFGGGTKLEIK | nM | 1.7 |
| anti-B7-H7 antibody 5C9 (antibody, V domains shown, Mouse hybridoma antibody) VH: QVQLQQSGAELAKPGASVKMSCKASGYTFTSFWIHWIKQRPGQGLEWIGYIIPNTDYTEYNQKFKDKATFTADKSSSTAYMQLSSLTSEDSAVFYCARGLRGAYYFDYWGQGTTLTVSS VL: DIVLTQSPASLAVSLGLRATISCRSSQSVSTSTNGYMHWYQQKPGQPPKLLIMYASNLESGVPARFSGSGSGTDFTLNIHPVDEEDTATYYCQHSWVLPYTFGGGTKLEIK | nM | 3 |
| anti-B7-H7 antibody 2F10 (antibody, V domains shown, Mouse hybridoma antibody) VH: EIQLQQTGPELVKPGASLRISCKASGYSFTDYIIVWVKQNQGKNLDWIEKINPYYGTTTYNLRFEDKATLTVNKSSTTAYMQLNSLTSEDSAVYYCARWDYVSTLFAMDYWGQGTSITVSS VL: DIVMTQSHKVMSTSVGDRVSIICKASQDVGTAVAWYQQKPGQSPKLLIYWASTRHTGVPDRFTGSGSGTDFILTITNVQSENLANYFCQQYKRYYTFGGGTKLEIK | nM | 2.5 |
| anti-B7-H7 antibody 5F7 (antibody, V domains shown, Mouse hybridoma antibody) VH: QEQLQQPGTELVKPGASVKISCKASGYTFSSYSMHWVKLTPGQGLEWMGTIYPGNENTSYNQKFKGKATLTADKSSSTAYMQLSSLTSEDSAVYYCARGGYYFDYWGQGTTLTVSS VL: DIVMTQSHKFLSTSVGDRVSITCKASQDVSTAVAWYQQKPGQSPKLLIYWASTRHTGVSDRFTGSGSGTDFTLTISSVQAEDLALYYCQQHFDIPYWFGGGTKLEIK | nM | 1.6 |
| anti-B7-H7 antibody 1D3 (antibody, V domains shown, Mouse hybridoma antibody) VH: EVQLQQSGPELEKPGASVKISCKASGYSFTGYNMNWVKESNGRSLEWIGNIDPYSGGSTYNQKFKGKATMTVDKSSSTAYMQLKSLTSEDSAVYYCARSVYDAPWLAHWGQGTLVTVSA VL: DIQMTQSPASLSASVGETVTITCRASENIYIYLAWYQQKQGKSPQLLVYNAKTLAEGVPSRFSGSGSGTQFSLKINRLQPEDFGNYYCQHHYGTPPTFGGGTKLEIK | nM | 5 |
| anti-B7-H7 antibody 3H6 (antibody, V domains shown, Mouse hybridoma antibody) VH: EVQLQQSGPELVKPGASVKISCKTSGYTFTEYTMHWVKQSHGKSLEWIGGINPNNGGAPYNQKFKGKATLTVDKSSSTAYMELRSLTSEDSAVYYCARGGYYFDYWGQGTTLTVSS VL: DIVMTQSHKFMSTSVGDRVSITCKASQDVSTAVAWYQQKSGQSPKLLIYWASTRHTGVPDRFTGSGSGTDYTLTISSVQAEDLALYYCQQHYDTPFTFGGGTKLEIK | nM | 2.7 |

Consider now this further binder.
Looking for the measured IC50 of anti-B7-H7 antibody 2D7 (antibody, V domains shown, Parental mouse hybridoma antibody raised against human B7-H7-Fc) VH: EVQLQQSGPELVKPGASVKISCKTSGYTFTEYTMHWVKQSHGKSLEWIGGINPNNYGAPYNQKFKGKATLTVDKSSNTAYMELRSLTSEDSAIYYCASGGYYFDYWGQGTTLTVSS VL: DIVMTQSHKFMSTSFGDRVSITCKASQDVGTAVAWYQQKLGQSPKLLISWAFTRHTGVPDRFTGSGSGTDYTLTISSLQAEDLALYYCQQHYDTPFTFGSGTKLEIK , can you help?
2
